Conditions: pH 2.7
assay_endpoint: logp [a]

{"compound": "Cc1cc(C(F)F)nn1CC(=O)N1CCC(c2nc(C3=NOC(c4ccccc4OCC#N)C3)cs2)CC1 (stereo not shown) [I-143]", "assay_endpoint": "logp [a]", "reported_result": "2.6[a],"}
{"compound": "Cc1ccc(OCC#N)c(C2CC(c3csc(C4CCN(C(=O)Cn5nc(C(F)F)cc5C(F)F)CC4)n3)=NO2)c1 (stereo not shown)", "assay_endpoint": "logp [a]", "reported_result": "3.17[a],"}
{"compound": "Cc1cc(C(F)(F)F)nn1CC(=O)N1CCC(c2nc(C3=NOC(c4c(Cl)cccc4OS(C)(=O)=O)C3)cs2)CC1 (stereo not shown)", "assay_endpoint": "logp [a]", "reported_result": "3.28[a],"}
{"compound": "C=CC(=O)Oc1ccccc1C1CC(c2csc(C3CCN(C(=O)Cn4nc(C(F)(F)F)cc4C)CC3)n2)=NO1 (stereo not shown)", "assay_endpoint": "logp [a]", "reported_result": "3.38[a],"}
{"compound": "CS(=O)(=O)Oc1cc(Cl)ccc1C1CC(c2csc(C3CCN(C(=O)Cn4nc(C(F)F)cc4C(F)F)CC3)n2)=NO1 (stereo not shown)", "assay_endpoint": "logp [a]", "reported_result": "3.27[a],"}
{"compound": "Cc1cc(C(F)F)nn1CC(=O)N1CCC(c2nc(C3=NOC(C)(c4ccccc4OS(C)(=O)=O)C3)cs2)CC1 (racemic)", "assay_endpoint": "logp [a]", "reported_result": "2.86[a],"}
{"compound": "Cc1ccc(Cl)cc1NC(=O)N1CCC(c2nc(C3=NOC(c4cccc(C=NOC(C)C)c4)C3)cs2)CC1 (mixture of isomers)", "assay_endpoint": "logp [a]", "reported_result": "4.4[a]"}
{"compound": "N#CCCn1cccc1C1CC(c2csc(C3CCN(C(=O)Cn4nc(C(F)F)cc4C(F)F)CC3)n2)=NO1 (stereo not shown)", "assay_endpoint": "logp [a]", "reported_result": "2.71[a],"}
{"compound": "CS(=O)(=O)Oc1cccc(Cl)c1C1CC(c2csc(C3CCN(C(=O)Cn4nc(C(F)F)cc4C(F)F)CC3)n2)=NO1 (stereo not shown)", "assay_endpoint": "logp [a]", "reported_result": "3.2[a],"}
{"compound": "CCNC(=O)Oc1ccccc1C1CC(c2csc(C3CCN(C(=O)Cn4nc(C(F)F)cc4C(F)F)CC3)n2)=NO1 (stereo not shown)", "assay_endpoint": "logp [a]", "reported_result": "2.84[a],"}
{"compound": "Cc1cc(C(F)(F)F)nn1CC(=O)N1CCC(c2nc(C3=NOC(c4cccc(OCC#N)c4)C3)cs2)CC1 (stereo not shown)", "assay_endpoint": "logp [a]", "reported_result": "3.06[a],"}
{"compound": "O=C(Oc1ccccc1C1CC(c2csc(C3CCN(C(=O)Cn4nc(C(F)F)cc4C(F)F)CC3)n2)=NO1)c1cccc(F)c1 (stereo not shown)", "assay_endpoint": "logp [a]", "reported_result": "3.76[a],"}
{"compound": "N#CCOc1c(Cl)cccc1C1CC(c2csc(C3CCN(C(=O)Cn4nc(C(F)F)cc4C(F)F)CC3)n2)=NO1 (stereo not shown)", "assay_endpoint": "logp [a]", "reported_result": "3.14[a],"}
{"compound": "Cc1cc(C(F)(F)F)nn1CC(=O)N1CCC(c2nc(C3=NOC(c4ccccc4OS(C)(=O)=O)C3)cs2)CC1 (racemic)", "assay_endpoint": "logp [a]", "reported_result": "3.07[a],"}
{"compound": "COCCSCc1ccccc1C1CC(c2csc(C3CCN(C(=O)Cn4nc(C(F)F)cc4C(F)F)CC3)n2)=NO1 (stereo not shown)", "assay_endpoint": "logp [a]", "reported_result": "3.5[a]"}
{"compound": "CS(=O)(=O)Oc1ccc(F)c(C2CC(c3csc(C4CCN(C(=O)Cn5nc(C(F)F)cc5C(F)F)CC4)n3)=NO2)c1F (racemic)", "assay_endpoint": "logp [a]", "reported_result": "2.95[a],"}
{"compound": "Cc1cc(C(F)(F)F)nn1CC(=O)N1CCC(c2nc(C3=NOC(c4ccc(OS(C)(=O)=O)cc4)C3)cs2)CC1 (stereo not shown)", "assay_endpoint": "logp [a]", "reported_result": "2.9[a],"}
{"compound": "Cc1cc(C(F)(F)F)nn1CC(=O)N1CCC(c2nc(C3=NOC(c4cccc(F)c4OS(=O)(=O)C4CC4)C3)cs2)CC1 (stereo not shown)", "assay_endpoint": "logp [a]", "reported_result": "3.43[a],"}
{"compound": "Cc1cc(C(F)F)n(CC(=O)N2CCC(c3nc(C4=NOC(c5ccccc5OS(C)(=O)=O)C4)cs3)CC2)n1 (stereo not shown)", "assay_endpoint": "logp [a]", "reported_result": "2.65[a],"}
{"compound": "CC(=O)Nc1ccc(C2CC(c3csc(C4CCN(C(=O)Cn5nc(C(F)F)cc5C(F)F)CC4)n3)=NO2)cc1 (racemic)", "assay_endpoint": "logp [a]", "reported_result": "2.2[a],"}
{"compound": "O=C(Cn1nc(C(F)F)cc1C(F)F)N1CCC(c2nc(C3=NOC(c4cccc(OS(=O)(=O)C5CC5)c4)C3)cs2)CC1 (stereo not shown)", "assay_endpoint": "logp [a]", "reported_result": "3.17[a],"}
{"compound": "COc1ccc(OS(C)(=O)=O)c(C2(C)CC(c3csc(C4CCN(C(=O)Cn5nc(C(F)F)cc5C(F)F)CC4)n3)=NO2)c1OC (stereo not shown)", "assay_endpoint": "logp [a]", "reported_result": "3.28[a],"}
{"compound": "N#CCOc1ccc(F)c(C2CC(c3csc(C4CCN(C(=O)Cn5nc(C(F)F)cc5C(F)F)CC4)n3)=NO2)c1F (stereo not shown)", "assay_endpoint": "logp [a]", "reported_result": "2.96[a],"}
{"compound": "Cc1cc(C(F)F)nn1CC(=O)N1CCC(c2nc(C3=NOC(c4ccccc4OCC#N)C3)cs2)CC1 (stereo not shown) [I-76]", "assay_endpoint": "logp [a]", "reported_result": "2.7[a],"}
{"compound": "COCC[S+]([O-])Cc1ccccc1C1CC(c2csc(C3CCN(C(=O)Cn4nc(C(F)(F)F)cc4C)CC3)n2)=NO1 (stereo not shown)", "assay_endpoint": "logp [a]", "reported_result": "2.53[a]"}
{"compound": "CON=Cc1ccccc1C1CC(c2csc(C3CCN(C(=O)Cn4nc(C(F)(F)F)cc4C)CC3)n2)=NO1 (mixture of isomers)", "assay_endpoint": "logp [a]", "reported_result": "3.7[a]"}
{"compound": "N#CCOc1cccc(C2CC(c3csc(C4CCN(C(=O)Cn5nc(C(F)F)cc5C(F)F)CC4)n3)=NO2)c1 (stereo not shown)", "assay_endpoint": "logp [a]", "reported_result": "2.95[a],"}
{"compound": "COC(=O)COc1ccc(C2CC(c3csc(C4CCN(C(=O)Cn5nc(C(F)F)cc5C(F)F)CC4)n3)=NO2)cc1 (stereo not shown)", "assay_endpoint": "logp [a]", "reported_result": "2.89[a],"}
